assay: General cytotoxicity test on HepG2 cells; format: cell-based; conditions: human, 72 hours incubation, 200 to 0.78 μM, average of several runs, read-out: Hep-G2 CC50
recorded-metric: CC50 at 72 h (µM)
Answers are plain numbers, in µM.

// query Output measured CC50 at 72 h for this item: CN1CCN(C(=O)c2ccc3cc(CCNc4c(Cl)cnc5ccc(C#N)cc45)ccc3c2)CC1
// result 47.3

// query Output measured CC50 at 72 h for this item: CCN1CCN(C(=O)c2ccc3cc(CCNc4ccnc5ccc(C#N)cc45)ccc3c2)CC1
// result 10.6

// query Output measured CC50 at 72 h for this item: N#Cc1ccc2nccc(NCCc3ccc4cc(C(=O)N5CCN(CC(F)(F)F)CC5)ccc4c3)c2c1
// result 17.9

Provide CC50 at 72 h for all items below, preserving their order.
1. CC(C)N1CCN(C(=O)c2ccc3cc(CCNc4ccnc5ccc(C#N)cc45)ccc3c2)CC1
2. CN1CCN(C(=O)c2ccc3cc(CCNc4ccnc5ncc(C#N)cc45)ccc3c2)CC1
3. CN1CCN(C(=O)c2ccc3cc(CCOc4ccnc5ccc(C#N)cc45)ccc3c2)CC1
4. N#Cc1ccc2nccc(NCCc3ccc4cc(C(=O)N5CCNCC5)ccc4c3)c2c1

// result
[8.9, 85.1, 11.2, 11.6]
